For each of the molecules below, state its IC50.
# assayed-target: human EGF-R (Homo sapiens)
# Construct: packaging line GP+E86)
# Sequence (P00533 25-1210): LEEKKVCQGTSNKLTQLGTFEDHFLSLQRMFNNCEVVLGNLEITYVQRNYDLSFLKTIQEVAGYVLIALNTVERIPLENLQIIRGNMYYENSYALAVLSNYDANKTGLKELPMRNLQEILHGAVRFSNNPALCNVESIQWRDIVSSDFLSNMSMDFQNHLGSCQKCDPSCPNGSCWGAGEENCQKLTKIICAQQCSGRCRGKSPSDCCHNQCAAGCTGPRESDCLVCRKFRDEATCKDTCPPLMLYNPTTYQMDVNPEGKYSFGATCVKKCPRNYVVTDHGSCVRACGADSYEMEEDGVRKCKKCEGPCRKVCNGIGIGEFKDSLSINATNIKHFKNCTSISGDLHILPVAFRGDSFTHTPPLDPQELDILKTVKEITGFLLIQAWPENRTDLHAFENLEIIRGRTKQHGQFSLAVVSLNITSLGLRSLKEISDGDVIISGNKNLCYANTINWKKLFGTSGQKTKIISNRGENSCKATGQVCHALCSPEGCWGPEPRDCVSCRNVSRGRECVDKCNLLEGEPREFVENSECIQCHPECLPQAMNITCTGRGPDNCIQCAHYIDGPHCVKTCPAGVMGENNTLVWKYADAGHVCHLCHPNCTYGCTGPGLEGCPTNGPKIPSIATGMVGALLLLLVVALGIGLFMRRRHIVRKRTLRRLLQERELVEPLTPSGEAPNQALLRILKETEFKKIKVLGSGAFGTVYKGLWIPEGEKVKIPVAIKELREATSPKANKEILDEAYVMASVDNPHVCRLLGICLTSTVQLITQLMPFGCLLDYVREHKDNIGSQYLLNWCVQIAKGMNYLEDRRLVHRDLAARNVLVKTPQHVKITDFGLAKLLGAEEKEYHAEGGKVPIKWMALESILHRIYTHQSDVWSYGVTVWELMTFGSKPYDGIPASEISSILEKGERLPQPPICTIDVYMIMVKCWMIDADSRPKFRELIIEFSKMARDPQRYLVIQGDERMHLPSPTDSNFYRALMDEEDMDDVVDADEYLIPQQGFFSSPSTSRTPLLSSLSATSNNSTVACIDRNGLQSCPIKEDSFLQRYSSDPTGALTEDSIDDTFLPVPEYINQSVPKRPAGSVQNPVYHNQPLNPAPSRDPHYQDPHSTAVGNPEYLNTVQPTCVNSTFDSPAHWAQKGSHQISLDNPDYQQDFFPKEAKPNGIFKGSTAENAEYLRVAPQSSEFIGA
# method: Inhibition of EGF-dependent proliferation of F/L-HERc cells (Cell Titer 96 assay)
# settings: F/L-HERc cells (murine IL-3-dependent line expressing human EGF-R), stimulated with EGF 20 ng/ml, 48 hours
Your answer is read as nM, so omit the unit and give the number.

// IC50 lookup, key: O=C(C=CCN1CCOCC1)Nc1cc2c(Nc3ccc(F)c(Cl)c3)ncnc2cc1OCC1CC1
0.2

Note, next up: CC#CC(=O)Nc1cc2c(Nc3cccc(Br)c3)ncnc2cc1OCCCC1CCN(C)CC1
0.35

Note, next up: CCN(CC)CC=CC(=O)Nc1cc2c(Nc3ccc(F)c(Cl)c3)ncnc2cc1OCC1CC1
5

Data origin: patent US7220750B2
